experiment: soluble on expression in E. coli; label from the status in PepcDB or PDB records
property: soluble on expression in E. coli

MGSDKIHHHHHHMLRKSLILVLTGALTGLFSSISQGAETLSVATDAIAADFYPATQAGPQYGVLVLGGAEGGKPESLAKAIAHEGHPVLSLAYFNDKGLPQELEQIPLEYFAKAKVWLLNQANVRQDGLILVGWSKGAELSLLLASQDPLFSKVVAIAPSSVIWAGFLKDWTKTPSSSWTQGGKALDFVPFRPTGEVKGLLDLYSQSLQNAKAGQGRIPVENIKGDVVLLTGSNDEIWPSNLMAKALCQRMDTAGTQGSCTHINFEGLDHLLGEKFLDSNDAMHKQFMGFLEAE | not soluble
GCALNCSFCSTAKQGFNRNLSTAEIIGQVWLAARELSDNNGTHDKKITNVVMMGMGEPLLNFDNVVSAMNIMMDDLAYGLSKRRVTLSTSGVLPEMERLREVSPVALAVSLHAPTDELRNELVPINKKYPLSQLISLCKRYFKDEPRRKVTFEYVMLKGVNDQPEHASQLIKLLHNVPAKVNLIPFNPFPLTQYQRSSRETIDAFRDKLMKHGINTITRKTRG | not soluble
